Target: EEF2 Elongation factor 2 (Homo sapiens, UniProt P13639)
Construct: isoTOP-ABPP experiments performed in cell lysates (in vitro); endogenous in cells; host or cells: soluble proteome of human cancer cell lines (MDA-MB-231; Ramos and Jurkat also prepared)
Test: competitive isoTOP-ABPP
Format: binding
Conditions: 50 uM, 231 sol, in vitro
Below is a list of entries, each paired with its recorded isoTOP-ABPP reactivity ratio at lysine P13639_K235 value.
When you answer, write just the number.

Examples from the recorded data:
molecule: O=C(Oc1ccc([N+](=O)[O-])cc1[N+](=O)[O-])c1cc(C(F)(F)F)cc(C(F)(F)F)c1
observed.value: 1.1

molecule: O=C(CCc1coc2cc(F)ccc2c1=O)Oc1c(F)c(F)c(F)c(F)c1F
observed.value: 1.3

molecule: O=C(Oc1ccc([N+](=O)[O-])cc1[N+](=O)[O-])C(c1ccccc1)c1ccccc1 [fragment 30, 2,4-Dinitrophenyl 2,2-diphenylacetate]
observed.value: 1.4

**Query** Which value of isoTOP-ABPP reactivity ratio at lysine P13639_K235 has been reported for "Cn1cc(CC(=O)Oc2ccc([N+](=O)[O-])cc2[N+](=O)[O-])c2ccccc21" in the records?
**Result** 1.4

**Query** Which value of isoTOP-ABPP reactivity ratio at lysine P13639_K235 has been reported for "CCn1cc(C(=O)Oc2c(F)c(F)c(F)c(F)c2F)c(=O)c2ccc(C)nc21" in the records?
**Result** 1.4

**Query** Which value of isoTOP-ABPP reactivity ratio at lysine P13639_K235 has been reported for "COc1cc(CCC(=O)Oc2ccc([N+](=O)[O-])cc2[N+](=O)[O-])cc(OC)c1OC" in the records?
**Result** 1.0

**Query** Which value of isoTOP-ABPP reactivity ratio at lysine P13639_K235 has been reported for "O=C(CN1C(=O)c2ccccc2C1=O)Oc1c(F)c(F)c(F)c(F)c1F" in the records?
**Result** 5.7

Values were extracted from patent US20210255193A1.
